System: MOLT-4 leukemia
Assay: NCI-60 one-dose screen, 48 h (100 = growth as untreated, 0 = no growth, -100 = all killed)
Details: 10 µM unless noted
This is part of a sample that, as a whole, favours compounds with a hit. Of some 83,000 tested, about 20% had one in any assay.
Endpoint label: growth (%)
# number only, unit % dropped from output

Use these answered entries as a reference point.
# return recorded growth for entry N#Cc1c(-c2ccccc2)nc(SCC(O)CN2CCOCC2)nc1N1CCOCC1 (centres undefined)
83.2

# return recorded growth for entry Cc1nn(-c2cc(NC3CCC(O)CC3)c3c(=O)[nH]c(CCC(F)(F)F)cc3c2)c2c1C(=O)CC(C)(C)C2 (centres undefined)
40.8

# return recorded growth for entry `[2H]C([2H])([2H])Oc1ccc(F)cc1/C=C/C(=O)/C=C(/C=C/c1cc(F)ccc1OC([2H])([2H])[2H])OB(F)F`
4.82

For the next question, use this compound.
# return recorded growth for entry `C/C(Cc1ccc(Cl)cc1)=C(\c1ccc(OCCCN(C)C)cc1)c1ccc(OC(=O)Cc2ccccc2)cc1`
77.3
